Entries and their IC50
- system: Dimer of Gag-Pol polyprotein [489-587] (Human immunodeficiency virus 1, UniProt P12497)
- Construct: 489-587
- run.description: Protease Inhibition Assay
- condition.summary: pH 4.7; 37 °C
Quick note: give the figure in nM, leave out the unit.

>>> readout_value("CC(C)(C)c1ccccc1Sc1c(O)cc(-c2ccccc2)oc1=O")
17
>>> readout_value("O=c1oc(-c2ccc(O)cc2)cc(O)c1SCCc1ccccc1")
520
>>> readout_value("CC(C)c1ccccc1Sc1c(O)cc(-c2ccccc2)oc1=O")
37

Now consider the entry below.
What does the record list as IC50 for `O=c1oc(-c2ccccc2)cc(O)c1SCc1ccccc1` ?
1700
